molecules and their reported Percent Inhibition (%)
# System Name: pyranose oxidase (Trametes versicolor, UniProt P79076)
# Construct: made in house; not recombinant
# Type: biochemical, Coriolus versicolor
# Experimental Conditions: 0.2 ml of 18.5 mM inhibitor solution, 280 mU pyranose oxidase, pH 7.0, 37° C.
Measurement Kind: Percent Inhibition (%)

| Molecule | Measurement Kind | Readout Value |
| --- | --- | --- |
| O=[N+]([O-])[O-].[Ag+] [silver nitrate] | Percent Inhibition (%) | 53.3 |
| O=C(O)c1cc[c]([Hg][Cl])cc1 [p-chloromercuribenzoate] | Percent Inhibition (%) | 50.0 |
| O=S(=O)([O-])[O-].[Mg+2] [magnesium sulfate] | Percent Inhibition (%) | 0 |
| O=S(=O)([O-])[O-].[Co+2] [cobalt sulfate] | Percent Inhibition (%) | 13.3 |
| O=S(=O)([O-])[O-].[Cu+2] [copper sulfate] | Percent Inhibition (%) | 35.7 |

###

activity reference
# System Name: pyranose oxidase (Trametes versicolor)
# Construct: made in house; not recombinant
# Measurement Protocol: biochemical
# Type: biochemical, Coriolus versicolor
# Set-up: dose or concentration left out as unconfirmed
# Experimental Conditions: pH 7; read-out: Relative Activity (%)

| Molecule | System Name | activity |
| --- | --- | --- |
| OC[C@H]1O[C@H](O[C@H]2[C@H](O)[C@@H](O)[C@H](O)O[C@@H]2CO)[C@H](O)[C@@H](O)[C@@H]1O [maltose] | pyranose oxidase (Trametes versicolor) | 0% |
| O=C(O)[C@H](O)[C@@H](O)[C@H](O)[C@H](O)CO [gluconic acid] | pyranose oxidase (Trametes versicolor) | 0% |
| OC[C@@H](O)[C@@H](O)[C@H](O)[C@H](O)CO [mannitol] | pyranose oxidase (Trametes versicolor) | 0% |
| OC1OC[C@@H](O)[C@H](O)[C@H]1O (stereo partly shown) [xylose] | pyranose oxidase (Trametes versicolor) | 2.6% |
| N[C@H]1C(O)O[C@H](CO)[C@@H](O)[C@@H]1O (stereo partly shown) [glucosamine] | pyranose oxidase (Trametes versicolor) | 0% |
| OC[C@H]1O[C@@H](O[C@H]2[C@H](O)[C@@H](O)C(O)O[C@@H]2CO)[C@H](O)[C@@H](O)[C@H]1O (stereo partly shown) [lactose] | pyranose oxidase (Trametes versicolor) | 0% |
| OC[C@H]1O[C@H](O[C@H]2O[C@H](CO)[C@@H](O)[C@H](O)[C@H]2O)[C@H](O)[C@@H](O)[C@@H]1O [trehalose] | pyranose oxidase (Trametes versicolor) | 0% |
